Source of measurements: BindingDB's records for doi:10.7270/Q2PR7TCX

SYSTEM: Steroidogenic factor 1 (Homo sapiens, UniProt Q13285)
Sequence (Q13285 whole entry, the tested form may be a part): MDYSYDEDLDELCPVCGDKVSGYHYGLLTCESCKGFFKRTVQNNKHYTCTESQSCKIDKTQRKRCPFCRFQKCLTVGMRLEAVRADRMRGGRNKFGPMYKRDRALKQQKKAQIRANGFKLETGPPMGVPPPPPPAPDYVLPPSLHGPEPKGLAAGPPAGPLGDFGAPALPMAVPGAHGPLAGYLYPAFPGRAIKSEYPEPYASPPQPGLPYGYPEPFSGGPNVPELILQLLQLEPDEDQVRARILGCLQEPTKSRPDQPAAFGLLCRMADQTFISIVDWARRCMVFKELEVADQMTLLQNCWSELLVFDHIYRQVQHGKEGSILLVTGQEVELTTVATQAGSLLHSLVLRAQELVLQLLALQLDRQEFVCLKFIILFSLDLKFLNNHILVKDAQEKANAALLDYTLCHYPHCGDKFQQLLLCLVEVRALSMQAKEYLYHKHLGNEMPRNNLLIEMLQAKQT
ASSAY_REMARKS: inhibition of SF-1 LBD-driven luciferase – cell-based, CHO-K1, Gal4-SF-1 LBD, luciferase luminescence, counter-screen for RORA inhibitor project, dose response (AID 611)
pIC50: −log10 of the molar value.
ATTRIBUTE_MEASURED: pIC50

Solved entries:
CCN(C1CCCCC1)S(=O)(=O)c1ccc(S(=O)(=O)NCc2ccncc2)cc1 : 5.02
O=C(CSc1nnnn1C1CC2CCC1C2)Nc1ccnc2ccccc12 (stereo not drawn) : 6.35
Cc1ccc(S(=O)(=O)Nc2cccc3ncccc23)s1 : 5.27
COC(=O)/C(=C1/Oc2cc(C)oc(=O)c2S1)C(F)(F)F : 5.36
COc1ccccc1-c1cc(C(F)(F)F)nc(S(=O)(=O)CCCC(=O)NC(C)C)n1 : 5.03

A = CC(C)(C)c1ccc(-c2noc(CCC(N)=O)n2)cc1
B = COc1cccc(C(=O)c2sc(NC(C)C)nc2N)c1
Please indicate which has the smaller reported pIC50: A , or B . Indicate your choice by writing its label.
B
(B: 5.28, A: 7.20)

A = Cc1ccc(-c2noc(CCCC(=O)Nc3cccnc3)n2)cc1
B = CCOc1ccc(-c2nc(CSCC(=O)NCc3ccco3)c(C)o2)cc1
C = O=C(O)c1cccc(COc2ccccc2Cl)c1
Sort entries by pIC50 from minimum to maximum value. Returns: the labels listed in the requested order.
A, C, B

P = Cc1cc(NC(=O)c2ccc3c(c2)OCCO3)no1
Q = Clc1cccc(-c2nc(-c3ccccn3)no2)c1
Two entries are listed, P and Q . Which one carries the higher pIC50? Indicate your choice by writing its label.
Q

P = O=C(NC1CC1)c1ccc(-c2nc3ccccc3s2)s1
Q = c1ccc2nc(-c3nc4ccccc4o3)ccc2c1
Two entries are listed, P and Q . Which one carries the higher pIC50? Indicate your choice by writing its label.
Q
(Q: 5.27, P: 5.02)
